- target.system: β-secretase (Homo sapiens, UniProt P56817)
- Sequence (P56817 46-501): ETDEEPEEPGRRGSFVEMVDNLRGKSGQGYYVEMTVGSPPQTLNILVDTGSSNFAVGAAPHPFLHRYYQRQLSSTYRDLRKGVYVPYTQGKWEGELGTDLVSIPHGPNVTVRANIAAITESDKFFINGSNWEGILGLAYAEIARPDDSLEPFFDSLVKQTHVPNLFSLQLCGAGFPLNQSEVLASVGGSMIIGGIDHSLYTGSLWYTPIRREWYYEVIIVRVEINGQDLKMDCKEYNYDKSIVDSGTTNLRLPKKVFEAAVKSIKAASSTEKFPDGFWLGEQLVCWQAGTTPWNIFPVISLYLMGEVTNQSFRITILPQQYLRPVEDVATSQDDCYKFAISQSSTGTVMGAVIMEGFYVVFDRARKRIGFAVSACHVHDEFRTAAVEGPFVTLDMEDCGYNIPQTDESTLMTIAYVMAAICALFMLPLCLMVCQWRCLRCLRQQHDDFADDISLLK
- experiment.notes: β-secretase cleavage of peptide substrates and peptide libraries followed by LC/MS
- Assay type: biochemical
- conditions.used: P1′ peptide library treated with β-secretase, FIG. 2
readout.type: rate of cleavage (depletion of full length substrate) of P1′ peptide library components

substance	result
P1′=Pro: P1′ peptide library component: Swedish mutant APP 8-mer with Pro at P1′ (EVNLPAEF)	not cleaved
P1′=Gly: P1′ peptide library component: Swedish mutant APP 8-mer with Gly at P1′ (EVNLGAEF)	not cleaved

----------
- target.system: β-secretase (Homo sapiens)
- experiment.notes: β-secretase cleavage of peptide substrates and peptide libraries followed by LC/MS
- Assay type: biochemical
- conditions.used: hydrolysis by β-secretase; Swedish mutant EVNLDAEF (SEQ ID NO: 257) = 1; each peptide 1 μM, pH 4.5, 37° C.
readout.type: Relative rates of hydrolysis

Here's what some known entries look like.
chain.sequence	Relative rates of hydrolysis
EVNFAVEF (Beta-Secretase Cleavage Site)	30
EVNFEAEF (Beta-Secretase Cleavage Site)	17
EVNFEVEF (Beta-Secretase Cleavage Site)	60

a: EVNLDAEF (Beta-Secretase Cleavage Site) [8-mer of Swedish mutant APP around the β-secretase cleavage site, reference compound]
b: EVNFAAEF (Beta-Secretase Cleavage Site)
Challenge: Between item a and item b , which reported Relative rates of hydrolysis is smaller? API: response body contains the label of the selected item.
Response given: a
(a: 1, b: 17)
